All values here come from patent US10011571B2.

Molecular target: JAK3 (Homo sapiens (Human), UniProt P52333)
Sequence (P52333 whole entry, species assumed): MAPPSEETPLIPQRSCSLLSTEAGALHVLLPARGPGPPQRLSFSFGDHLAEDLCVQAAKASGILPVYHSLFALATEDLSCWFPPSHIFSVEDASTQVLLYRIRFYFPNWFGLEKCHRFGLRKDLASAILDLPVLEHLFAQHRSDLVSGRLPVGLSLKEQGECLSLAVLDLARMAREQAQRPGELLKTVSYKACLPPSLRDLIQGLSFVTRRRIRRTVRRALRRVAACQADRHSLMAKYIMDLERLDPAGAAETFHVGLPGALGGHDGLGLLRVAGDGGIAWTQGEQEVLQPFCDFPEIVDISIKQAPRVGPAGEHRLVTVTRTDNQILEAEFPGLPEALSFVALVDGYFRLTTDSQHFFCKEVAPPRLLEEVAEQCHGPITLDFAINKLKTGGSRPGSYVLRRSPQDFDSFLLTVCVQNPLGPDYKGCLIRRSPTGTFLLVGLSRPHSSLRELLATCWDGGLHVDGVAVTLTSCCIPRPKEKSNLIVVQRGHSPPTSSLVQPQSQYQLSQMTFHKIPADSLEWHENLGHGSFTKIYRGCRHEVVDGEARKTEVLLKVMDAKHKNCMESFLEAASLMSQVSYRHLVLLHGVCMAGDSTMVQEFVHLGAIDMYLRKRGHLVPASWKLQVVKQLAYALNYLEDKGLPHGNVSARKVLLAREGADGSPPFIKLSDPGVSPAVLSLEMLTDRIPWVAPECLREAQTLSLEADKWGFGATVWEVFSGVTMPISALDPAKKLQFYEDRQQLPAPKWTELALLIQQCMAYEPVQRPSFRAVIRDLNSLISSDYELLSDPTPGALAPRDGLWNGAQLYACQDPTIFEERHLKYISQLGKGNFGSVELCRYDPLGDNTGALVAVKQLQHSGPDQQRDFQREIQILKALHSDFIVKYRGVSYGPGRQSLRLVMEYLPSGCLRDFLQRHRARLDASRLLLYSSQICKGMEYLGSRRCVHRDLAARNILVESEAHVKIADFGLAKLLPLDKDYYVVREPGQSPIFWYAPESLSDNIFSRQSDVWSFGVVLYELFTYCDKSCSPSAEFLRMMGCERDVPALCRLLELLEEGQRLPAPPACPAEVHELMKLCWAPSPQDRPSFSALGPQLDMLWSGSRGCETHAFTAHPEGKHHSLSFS
pIC50: −log10 of the molar value.

Smiles str | Experimental system | pIC50
C=CC(=O)N(C)c1cc(Nc2ncc(Cl)c(NCCCNC(=O)c3ccc(C(F)(F)F)cc3)n2)ccc1F | JAK3 (Homo sapiens (Human), UniProt P52333) | 7.68
C=CC(=O)N(C)c1cc(Nc2ncc(Cl)c(NCCCNC(=O)c3ccc(C#N)cc3)n2)ccc1F | JAK3 (Homo sapiens (Human), UniProt P52333) | 7.96

----------
JAK1 RV (ratio between the inhibitory rate of the test compound and that of Xeljanz) for assorted molecules
Molecular target: JAK1 (Homo sapiens (Human))
Sequence (P23458 whole entry): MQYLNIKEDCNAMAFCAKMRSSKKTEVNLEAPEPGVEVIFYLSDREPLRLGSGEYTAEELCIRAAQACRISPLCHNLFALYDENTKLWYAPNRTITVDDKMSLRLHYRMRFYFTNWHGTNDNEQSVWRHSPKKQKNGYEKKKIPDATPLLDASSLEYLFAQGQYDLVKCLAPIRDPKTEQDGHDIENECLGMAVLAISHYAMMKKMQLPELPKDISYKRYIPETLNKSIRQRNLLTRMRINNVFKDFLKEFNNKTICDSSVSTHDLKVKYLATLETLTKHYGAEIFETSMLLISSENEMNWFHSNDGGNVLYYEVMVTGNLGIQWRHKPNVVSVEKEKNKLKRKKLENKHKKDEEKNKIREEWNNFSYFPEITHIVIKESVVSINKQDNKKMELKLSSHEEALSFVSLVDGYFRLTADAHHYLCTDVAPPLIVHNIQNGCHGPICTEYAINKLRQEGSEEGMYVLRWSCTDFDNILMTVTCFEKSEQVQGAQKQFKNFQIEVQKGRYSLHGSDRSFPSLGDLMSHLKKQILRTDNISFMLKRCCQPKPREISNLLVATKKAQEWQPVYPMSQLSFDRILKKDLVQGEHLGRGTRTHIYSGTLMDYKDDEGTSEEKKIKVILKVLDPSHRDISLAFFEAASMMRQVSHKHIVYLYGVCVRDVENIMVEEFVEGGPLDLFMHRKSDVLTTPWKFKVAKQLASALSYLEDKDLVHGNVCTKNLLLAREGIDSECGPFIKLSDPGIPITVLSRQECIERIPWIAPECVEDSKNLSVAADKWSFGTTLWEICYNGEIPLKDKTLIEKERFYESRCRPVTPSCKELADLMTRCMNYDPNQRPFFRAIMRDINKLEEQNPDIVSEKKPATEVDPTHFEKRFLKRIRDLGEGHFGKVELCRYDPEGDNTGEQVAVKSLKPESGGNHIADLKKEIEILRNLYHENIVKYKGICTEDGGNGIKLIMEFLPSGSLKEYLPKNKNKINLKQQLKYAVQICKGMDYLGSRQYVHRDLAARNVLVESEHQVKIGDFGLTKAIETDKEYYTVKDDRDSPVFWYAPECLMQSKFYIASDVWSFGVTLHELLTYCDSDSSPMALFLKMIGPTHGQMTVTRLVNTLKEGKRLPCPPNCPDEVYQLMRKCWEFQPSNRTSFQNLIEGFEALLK
Assay: Z'-LYTE enzymatic activity detection, JAK1
Assay type: biochemical
Settings: test compound 300 nM
Property measured: JAK1 RV (ratio between the inhibitory rate of the test compound and that of Xeljanz)

Smiles str | Endpoint result
C=CC(=O)N(C)c1cc(Nc2ncc(Cl)c(NCCCNC(=O)c3ccc(C#N)cc3)n2)ccc1F | 0.58
C=CC(=O)Nc1cc(Nc2ncc(Cl)c(NCCCNC(=O)c3ccc(F)cc3)n2)ccc1F | 0.93
C=CC(=O)N(C)c1cc(Nc2ncc(Cl)c(NCCCNC(=O)c3ccccc3)n2)ccc1F | 0.51
C=CC(=O)N(C)c1cc(Nc2ncc(Cl)c(NCCCNC(=O)c3ccc(N(C)C)cc3)n2)ccc1F | 0.57
C=CC(=O)N(C)c1cc(Nc2ncc(Cl)c(NCCCNC(=O)C3CCN(C)CC3)n2)ccc1F | 0.45
C=CC(=O)N(C)c1cc(Nc2ncc(Cl)c(OCCCNC(=O)c3ccc(C#N)cc3)n2)ccc1F | 0.70
C=CC(=O)N(C)c1cc(Nc2ncc(Cl)c(NCCCNC(=O)c3ccc(C#N)nc3)n2)ccc1F | 0.34
C=CC(=O)N(C)c1cc(Nc2ncc(Cl)c(NCCCNC(=O)c3c(F)cc(F)cc3F)n2)ccc1F | 0.25
C=CC(=O)Nc1cc(Nc2ncc(Cl)c(NCCCNC(=O)c3ccc(C#N)cc3)n2)ccc1F | 0.40
C=CC(=O)N(C)c1cc(Nc2ncc(Cl)c(NCCCNC(=O)c3ccc(CC)cc3)n2)ccc1F | 0.22
C=CC(=O)N(C)c1cc(Nc2ncc(Cl)c(NCCCNC(=O)c3ccc(C(F)(F)F)c(F)c3)n2)ccc1F | 0.87
C=CC(=O)N(C)c1cc(Nc2ncc(Cl)c(NCCCNC(=O)Cc3ccc(C#N)cc3)n2)ccc1F | 0.13
C=CC(=O)N(C)c1cc(Nc2ncc(Cl)c(NCCCNC(=O)c3ccc(C(F)F)cc3)n2)ccc1F | 0.49
C=CC(=O)Nc1cc(Nc2ncc(Cl)c(NCCCNC(=O)c3ccc(C(F)(F)F)cc3)n2)ccc1F | 0.40
C=CC(=O)N(C)c1cc(Nc2ncc(Cl)c(NCCCNC(=O)c3ccc(C#N)cc3F)n2)ccc1F | 0.08
C=CC(=O)N(C)c1cc(Nc2ncc(Cl)c(NCCCNC(=O)c3cccc(C#N)c3)n2)ccc1F | 0.53
